Below, each entry is listed with its recorded pKd.
- Tested target: PRMT5-MEP50 (Homo sapiens)
- Construct: The compounds were tested by means of FP with the full-length PRMT5-MEP50 complex; made in house
- Sequence (O14744 whole entry): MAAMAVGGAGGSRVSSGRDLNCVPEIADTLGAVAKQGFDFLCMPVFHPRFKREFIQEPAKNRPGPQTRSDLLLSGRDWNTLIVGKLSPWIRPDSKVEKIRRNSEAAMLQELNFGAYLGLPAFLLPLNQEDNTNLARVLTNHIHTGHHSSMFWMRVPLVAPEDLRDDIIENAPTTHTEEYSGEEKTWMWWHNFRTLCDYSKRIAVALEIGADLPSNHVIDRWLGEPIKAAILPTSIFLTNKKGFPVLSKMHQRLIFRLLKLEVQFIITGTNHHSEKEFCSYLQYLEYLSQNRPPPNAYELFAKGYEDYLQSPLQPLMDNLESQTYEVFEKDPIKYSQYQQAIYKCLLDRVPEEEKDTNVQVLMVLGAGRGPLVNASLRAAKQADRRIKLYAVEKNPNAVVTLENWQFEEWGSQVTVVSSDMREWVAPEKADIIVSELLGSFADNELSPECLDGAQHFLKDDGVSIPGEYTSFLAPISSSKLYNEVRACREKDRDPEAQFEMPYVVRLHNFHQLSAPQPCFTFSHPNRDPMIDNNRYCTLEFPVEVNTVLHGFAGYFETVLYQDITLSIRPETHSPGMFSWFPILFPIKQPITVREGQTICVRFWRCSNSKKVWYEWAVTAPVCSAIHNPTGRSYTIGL
- Sequence (Q9BQA1 whole entry partner): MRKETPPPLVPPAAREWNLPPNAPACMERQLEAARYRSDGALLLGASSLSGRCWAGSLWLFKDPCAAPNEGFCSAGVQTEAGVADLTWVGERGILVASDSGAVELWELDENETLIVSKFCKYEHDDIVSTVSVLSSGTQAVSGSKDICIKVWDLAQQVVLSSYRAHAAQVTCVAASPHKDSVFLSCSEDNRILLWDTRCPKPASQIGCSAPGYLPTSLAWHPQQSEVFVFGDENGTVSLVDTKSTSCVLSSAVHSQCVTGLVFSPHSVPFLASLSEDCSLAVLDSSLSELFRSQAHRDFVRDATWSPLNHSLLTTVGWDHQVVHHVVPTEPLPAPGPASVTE
- Procedure text: Direct binding fluorescence polarization (FP) assay of FITC-labeled peptides
- Condition description: supplementary CSV, read-out: PRMT5-MEP50 Kd
pKd: −log10 of the molar value. Square brackets hold non-standard residues; d marks the D form. Peptide text beside a SMILES is read from it. * marks the point of attachment. FITC = O=C1OC2(c3ccc(O)cc3Oc3cc(O)ccc32)c2ccc(NC(=S)*)cc21; NMeV = CN[C@H](C(=O)O)C(C)C

Below, 2 molecules whose answers are already recorded.
CC(=O)N[C@H](C(=O)N1CCC[C@H]1C(=O)NCC(=O)N[C@@H](CCC(N)=O)C(=O)N[C@@H](Cc1ccc(O)cc1)C(=O)N[C@@H](CC(=O)O)C(=O)N[C@@H](CC(=O)O)C(=O)N[C@@H](C)C(=O)N[C@@H](CC(=O)O)C(=O)N[C@@H](CCCCNC(=S)Nc1ccc2c(c1)C(=O)OC21c2ccc(O)cc2Oc2cc(O)ccc21)C(N)=O)C(C)C [Compound S18] (Ac-VPGQYDDADK(FITC)-NH2) :: < 6.00
CC(=O)N[C@H](C(=O)N1CCC[C@H]1C(=O)N[C@@H]1CCCCCC[C@H](C(=O)N[C@@H](CC(=O)O)C(=O)N[C@@H](C)C(=O)N[C@@H](CC(=O)O)C(=O)N[C@@H](CCCCNC(=S)Nc2ccc3c(c2)C(=O)OC32c3ccc(O)cc3Oc3cc(O)ccc32)C(N)=O)NC(=O)[C@H](Cc2ccccc2)NC(=O)[C@H](CCC(N)=O)NC1=O)C(C)C :: < 5.70

q: pKd for CC(=O)N(C)[C@H](C(=O)N1CCC[C@H]1C(=O)NCC(=O)N[C@@H](CCC(N)=O)C(=O)N[C@@H](Cc1ccccc1)C(=O)N[C@@H](CC(=O)O)C(=O)N[C@@H](CC(=O)O)C(=O)N[C@@H](C)C(=O)N[C@@H](CC(=O)O)C(=O)N[C@@H](CCCCNC(=S)Nc1ccc2c(c1)C(=O)OC21c2ccc(O)cc2Oc2cc(O)ccc21)C(N)=O)C(C)C [Compound 49] (Ac-[NMeV]PGQFDDADK(FITC)-NH2) ?
a: < 5.70
